# Test system: human MC3R (human, UniProt P41968 1-323)
# Sequence (P41968 whole entry): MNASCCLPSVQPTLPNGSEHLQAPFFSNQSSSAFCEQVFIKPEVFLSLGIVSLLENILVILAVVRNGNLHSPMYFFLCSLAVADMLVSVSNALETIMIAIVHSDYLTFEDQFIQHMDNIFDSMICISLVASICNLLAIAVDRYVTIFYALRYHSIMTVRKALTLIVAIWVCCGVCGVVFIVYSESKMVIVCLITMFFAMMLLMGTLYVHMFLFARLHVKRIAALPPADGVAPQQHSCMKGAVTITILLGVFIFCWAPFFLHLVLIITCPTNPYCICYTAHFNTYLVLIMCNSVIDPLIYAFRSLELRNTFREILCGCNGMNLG
# Assay protocol: cell-based or functional assay
Starred links: 1 amine or outer side, 2 acyl side, 3 side chain; linkers in the order of their positions; H or OH if unused. Positions of bridges follow the written chain, without caps; N, C: chain ends. Non-standard residues stand in square brackets, D forms with d. Primed or numbered codes have the meaning given here. dTyr(4-OMe)″ = O-methyl-D-tyrosine, COc1ccc(C[C@@H](N[*:1])C(=O)[*:2])cc1; Cit = NC(=O)NCCC[C@H](N)C(=O)O; Aib = CC(C)(N)C(=O)O
Assay metric: cAMP EC50

INSERT INTO results (binder, assay_metric, result) VALUES
  ('{CH2CO}-G[Cit][dF]RFC-NH2 (thioether N-6) [CTX-1655]', 'cAMP EC50', '> 10 µM'),
  ('Ac-RC[Aib]R[dTyr(4-OMe)″]RFC-NH2 (disulfide 2-8) [CTX-1298]', 'cAMP EC50', '> 10 µM'),
  ('{CH2CO}-[dA][Cit][dF]RFC-NH2 (thioether N-6) [CTX-1658]', 'cAMP EC50', '> 10 µM');

All figures here come from patent US20240391954A1.
